measurement notes: Toxicity XTT in CEM-SS cells (drug resistant strain assay)
Format: cell-based
condition parameters: human, CEM-SS cells, run with HIV-1 strain NL4-3L100I; read-out: TC50 (the source's name)
Would you kindly list CC50 for each of these compounds?

INPUT: Return the recorded CC50 value; entry: Cc1ccnc2c1NC(=O)c1cccnc1N2C1CC1 [Nevirapine, reference compound]
OUTPUT: > 10 µM

INPUT: Quick one: give measured CC50 for CC(C)Nc1cccnc1N1CCN(C(=O)c2cc3cc(NS(C)(=O)=O)ccc3[nH]2)CC1 [Delavirdine, reference compound]
OUTPUT: > 0.5 µM

INPUT: Provide CC50 value for the following compound: "COCCOCCOCCOc1ccc2[nH]c(C(=O)N3CCN(c4ncccc4NC(C)C)CC3)cc2c1"
OUTPUT: > 5 µM

INPUT: Given "COCCOCCOCCOCCOc1ccc2[nH]c(C(=O)N3CCN(c4ncccc4NC(C)C)CC3)cc2c1" , respond with its CC50.
OUTPUT: > 5 µM

INPUT: Answer with the recorded CC50 for the compound listed here: "COCCNc1ccc2[nH]c(C(=O)N3CCN(c4ncccc4NC(C)C)CC3)cc2c1"
OUTPUT: > 1 µM

INPUT: # return recorded CC50 for entry "COCCOCCNc1ccc2[nH]c(C(=O)N3CCN(c4ncccc4NC(C)C)CC3)cc2c1"
OUTPUT: > 1 µM
